Tested on: SUDIPGVI (diffuse intrinsic pontine glioma line)
Assay: growth inhibition (% activity, log2 RLU normalised to DMSO / staurosporine); higher = more growth inhibition
Conditions: 33 µM
recorded_metric: growth inhibition

1. CCOC(=O)CCC(=O)O[C@H]1[C@H](O[C@@H]2[C@@H](C)[C@H](O[C@H]3C[C@@](C)(OC)[C@@H](O)[C@H](C)O3)[C@@H](C)C(=O)O[C@H](CC)[C@@](C)(O)[C@H](O)[C@@H](C)C(=O)[C@H](C)C[C@@]2(C)O)O[C@H](C)C[C@@H]1N(C)C : -9.9%
2. CCCNC(C)C(=O)Nc1ccccc1C (centres undefined) : -0.942%
3. Clc1ccc(COC(Cn2ccnc2)c2ccc(Cl)cc2Cl)cc1 (centres undefined) : 1.21%
4. CCOC(=O)[C@H](CCc1ccccc1)N[C@@H](C)C(=O)N1[C@H](C(=O)O)C[C@@H]2CCC[C@@H]21 : -7.46%
5. CCn1nc(C(=O)O)c(=O)c2cc3c(cc21)OCO3 : -0.803%
6. COc1ccccc1OCC(O)COC(N)=O (centres undefined) : 0.561%
7. Cc1ncc([N+](=O)[O-])n1CCO : 0.0318%
8. NC(=O)Cc1cccc(C(=O)c2ccccc2)c1N : -0.113%
9. C[C@@H](O)[C@H]1C(=O)N2C(C(=O)O)=C(S[C@@H]3CN[C@H](C(=O)N(C)C)C3)[C@H](C)[C@H]12 : -2.04%
